Origin of values: patent US20240336588A1

# pIC50 per entry
Molecular target: DYRK1A (HT-497, 6×His tagged rat truncated DYRK1A isoform X1 residues 1-497) (Rattus norvegicus (Rat))
Experiment: DYRK1A ELISA assay (HT-PRD phosphorylation)
Conditions: 100 µM ATP, 5 ng HT-497, 30 min at 30° C.
pIC50: −log10 of the molar value.

For orientation, consider the following solved cases.
O=C(O[C@@H]1Cc2c(O)cc(O)cc2O[C@H]1c1cc(O)c(O)c(O)c1)c1cc(O)c(O)cc1F [Compound 41] :: < 7.00
O=C(O[C@@H]1Cc2ccccc2C[C@H]1c1cc(O)c(O)c(O)c1)c1cc(O)c(O)c(O)c1 [Compound 53] :: < 6.00
COc1cc(C(=O)O[C@@H]2Cc3c(O)cc(O)cc3O[C@@H]2c2cc(O)c(O)c(O)c2)cc(O)c1O [Compound 8] :: < 7.00
O=C(O[C@@H]1Cc2c(O)cc(O)cc2O[C@@H]1c1cc(O)c(O)c(O)c1)c1ccc(F)c(F)c1 [Compound 25] :: < 6.00
O=C(O[C@@H]1Cc2c(O)cc(O)cc2O[C@@H]1c1cc(O)c(O)c(O)c1)c1ccn(O)c(=O)c1 [Compound 26] :: < 6.00
COc1c(O)c(O)cc(C(=O)O[C@@H]2Cc3c(O)cc(O)cc3O[C@H]2c2cc(O)c(O)c(O)c2)c1F [Compound 50] :: < 7.00
O=C(O[C@@H]1Cc2c(O)cc(O)cc2O[C@H]1c1cc(O)c(O)c(O)c1)[C@H]1CC[C@@H](O)CC1 [Compound 43] :: < 6.00
O=C(O[C@@H]1Cc2c(O)cc(O)cc2O[C@@H]1c1cc(O)c(O)c(O)c1)c1ccncc1 [Compound 23] :: < 6.00
CCNC(=O)Oc1c(O)cc(C(=O)O[C@@H]2Cc3c(O)cc(O)cc3O[C@@H]2c2cc(O)c(O)c(O)c2)cc1O [Compound 13] :: < 6.00
O=C(O[C@H]1Cc2c(O)cc(O)cc2O[C@@H]1c1cc(O)c(O)c(O)c1)c1cnc(O)c(O)c1 [Compound 27] :: < 7.00

# pIC50 lookup, item Nc1ccc(C(=O)O[C@@H]2Cc3c(O)cc(O)cc3O[C@H]2c2cc(O)c(O)c(O)c2)cc1O [Compound 35]
< 6.00

# pIC50 lookup, item O=C(O[C@@H]1Cc2c(O)cc(O)cc2O[C@H]1c1cc(O)c(O)cc1F)c1cc(O)c(O)c(O)c1 [Compound 45]
< 7.00

# pIC50 lookup, item O=C(O[C@@H]1Cc2c(O)cc(O)cc2O[C@H]1c1cc(O)c(O)c(O)c1)c1cc(OC(F)F)c(O)c(O)c1F [Compound 65]
< 7.00

# pIC50 lookup, item O=C(O[C@@H]1Cc2c(O)cc(O)cc2O[C@H]1c1cc(O)c(O)c(O)c1)[C@H]1CC[C@H](O)CC1 [Compound 44]
< 6.00

# pIC50 lookup, item O=C(O[C@@H]1Cc2ccccc2O[C@H]1c1cc(O)c(O)c(O)c1)c1cc(O)c(O)c(O)c1 [Compound 39]
< 7.00
